system: MALME-3M melanoma; experiment: NCI tumour cell line growth inhibition, 48 h; in the data active means GI50 below about 0.43 µM; inactive means the rest
Bench note: report the call from active, inactive

Q: Which outcome did this test record for the compound "COc1ccc2c(c1)/C(=C/c1c(-c3ccc(C)cc3)nc3sc(C)cn13)C(=O)N2" ?
A: inactive

Q: Which outcome was assigned to CC1=C([Se]CC(OC(=O)[C@@H](CSSC(C)(C)C)NC(=O)C(C)(C)C)C(=O)NCCCCCC(=O)OCc2ccccc2)C(=O)c2ccccc2C1=O (some centres undefined) in this test?
A: inactive

Q: Returns: the outcome recorded for "CN1CCN(Cc2ccc(NC(=O)c3[nH]ncc3Nc3ccnc4ccsc34)cc2)CC1" in this assay.
A: inactive

Q: What is the recorded call for this compound in the test? "CCC[CH2][Sn]([CH2]CCC)([O]C(=O)c1cccc(F)c1F)[O][Sn]([CH2]CCC)([CH2]CCC)[O]C(=O)c1cccc(F)c1F"
A: active
